molecular target: tau (Homo sapiens); test: Tau biosensor dose titrations (HEK293T tau biosensor cells seeded with AD brain homogenate); type: cell-based; settings: 10 μM final concentration on cells, AD brain homogenate seed;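 note: AD brain homogenate preincubated 16 h with compound, then transfected into tau biosensor cells, seeding read as tau puncta counted by imaging, normalized to cell confluence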

| CHEMICAL_STRUCTURE | effect on seeding at 10 μM |
| --- | --- |
| COc1ccc(-c2cc(=O)c3c(O)cc(O)c(-c4cc(-c5cc(=O)c6c(O)cc(OC)cc6o5)ccc4OC)c3o2)cc1 | catalyzed seeding |
| CC(C)=CCc1c(O)cc2oc3cc(O)c(O)c(CCC(C)(C)O)c3c(=O)c2c1O | catalyzed seeding |
| COc1c(O)cc2oc3cc(O)c(CC=C(C)C)c(O)c3c(=O)c2c1CCC(C)(C)O | catalyzed seeding |

----------
target: tau (Homo sapiens, UniProt P10636); assay: MCE Phenols Library screening, tau biosensor cell seeding assay (AvZ); type: cell-based; settings: average Z score of the two replicates, tau seeding
Sequence (P10636 623-695 limits assumed): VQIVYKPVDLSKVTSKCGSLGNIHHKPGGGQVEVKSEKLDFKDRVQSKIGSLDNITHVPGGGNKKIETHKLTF
# if value of av Z reaches 0.3, tag yes (1); if it stays below, tag no (0)

| COMPOUND | LABEL_VALUE |
| --- | --- |
| O=C(/C=C/c1ccc(O)cc1)c1ccc(O)cc1O | yes (1) |
| COc1cc2c(cc1O)-c1cc3ccc(OC)c(OC)c3c[n+]1CC2 | yes (1) |
| O=c1cc(-c2ccc(O)c(O)c2)oc2cc(O)c([C@@H]3O[C@H](CO)[C@@H](O)[C@H](O)[C@H]3O)c(O)c12 | yes (1) |
| COc1c(O)cc2oc3cc(O)c(CC=C(C)C)c(O)c3c(=O)c2c1CCC(C)(C)O | yes (1) |
| COc1cc(C[C@@H](CO)[C@H](CO)Cc2ccc(O)c(OC)c2)ccc1O [(+)-Secoisolariciresinol] | yes (1) |
| COc1cc2ccc(=O)oc2c(O)c1OC | no (0) |
| O=c1cc(-c2ccc(O)cc2)oc2c([C@@H]3O[C@H](CO)[C@@H](O[C@@H]4O[C@H](CO)[C@@H](O)[C@H](O)[C@H]4O)[C@H](O)[C@H]3O)c(O)cc(O)c12 [Vitexin-4''-O-glucoside] | no (0) |
| Cc1cc(=O)oc2cc(O)cc(O)c12 [5,7-Dihydroxy-4-methylcoumarin] | no (0) |

----------
target: tau (Homo sapiens); assay: MCE Phenols Library screening, tau biosensor cell seeding assay (AvZ); format: cell-based; conditions: Z score, replicate 1
ASSAY_METRIC: Z repl 1

| COMPOUND | ENDPOINT_VALUE |
| --- | --- |
| O=c1cc(-c2ccc(O)cc2)oc2c([C@@H]3O[C@H](CO)[C@@H](O)[C@H](O)[C@H]3O)c(O)c([C@@H]3OC[C@@H](O)[C@H](O)[C@H]3O)c(O)c12 | 0.022 |
| CC(=O)c1ccc(O)cc1C [4?-Hydroxy-2?-methylacetophenone] | 0.511 |
| COc1cc2c(cc1O)C[C@H]1c3cc(O)c(OC)cc3CC[N@@+]1(C)C2.[Cl-] [Phellodendrine (chloride)] | 0.263 |
| O=C(CCc1ccc(O)cc1)c1c(O)cc(O[C@@H]2O[C@H](CO)[C@@H](O)[C@H](O)[C@H]2O)cc1O | 0.764 |
| O=C(/C=C/c1ccc(O)cc1)CC(=O)/C=C/c1ccc(O)cc1 | 0.602 |
| COc1ccc(-c2coc3cc(O[C@@H]4O[C@H](CO)[C@@H](O)[C@H](O)[C@H]4O)c(OC)c(O)c3c2=O)cc1O | 0.106 |
| O=c1cc(-c2ccccc2)oc2cccc(O)c12 [5-Hydroxyflavone] | -1.378 |
